assay: Toxicity liver stage against HepG2, at 10uM; format: cell-based; parameters: test concentration 10 uM, cell line HepG2-A16-CD81EGFP; conditions: human, HepG2-A16-CD81EGFP cells; read-out: INHIBITION
Assign cytotoxicity at 10 µM to each entry below.
Numbers only, in %.

See these solved cases before continuing.
{"COMPOUND": "CCCn1nc(-c2nc(C3CC3)no2)ccc1=O", "OBS_VALUE": 1.77}
{"COMPOUND": "Cc1[nH]ccc1C(=O)N1CCCN1C(=O)OC(C)(C)C", "OBS_VALUE": -6.49}
{"COMPOUND": "COCCN(C)C[C@@H]1CN(C(=O)c2cccc(C#N)c2)C[C@@H]1CO", "OBS_VALUE": 14.5}

Please look at the items below and tell me cytotoxicity at 10 µM for each one, in order.
1. Fc1ccc(-c2cnc(C3CCCN3)cn2)cc1 (centres undefined)
2. O=C1NC[C@H]2CN(Cc3nccs3)CCN12
3. CC(C)Cc1nc(CCn2ccc(=O)[nH]c2=O)n(-c2ccccn2)n1
4. CC1CCc2nc(O)c(C(=O)NCCc3cccs3)cc2C1 (centres undefined)
5. COC(=O)NCC(=O)N1CCCCC1c1nc2cc(F)ccc2[nH]1 (centres undefined)
6. CCCc1nnsc1C(=O)NCC1CCN(C(=O)c2ccncc2)CC1
7. OCc1cn(CC2CCN(C3CCSC3)CC2)nn1 (centres undefined)
8. Cc1nnc(NCCc2coc(-c3ccc(F)cc3)n2)c(C#N)c1C

Result:
-2.79
-4.9
-5.41
0.106
-1.41
16.2
0.55
-16.3
